assay: Solubility in phosphate buffer at pH 7.4.; assay type: physicochemical
readout name: solubility (µg/mL)

Reference set (4 entries):
### Prompt Provide measured solubility value, entry: Cc1oc(-c2ccccc2)nc1CCOc1ccc(CC(Nc2ccccc2C(=O)c2cccnc2)C(=O)O)cc1 (stereo not drawn)
### Response 55

### Prompt Provide measured solubility value, entry: Cc1oc(-c2ccccc2)nc1CCOc1ccc(CC(Nc2ccccc2C(=O)c2cccc(CO)c2)C(=O)O)cc1 (stereo not drawn)
### Response 1340

### Prompt Provide measured solubility value, entry: Cc1oc(-c2ccccc2)nc1CCOc1ccc(CC(Nc2ccccc2C(=O)c2ccc(CO)cc2)C(=O)O)cc1 (stereo not drawn)
### Response 75

### Prompt Provide measured solubility value, entry: Cc1oc(-c2ccccc2)nc1CCOc1ccc(CC(Nc2ccccc2C(=O)c2ccncc2)C(=O)O)cc1 (stereo not drawn)
### Response 1150

(a) Cc1oc(-c2ccccc2)nc1CCOc1ccc(C[C@@H](Nc2ccccc2C(=O)C2CCCCC2)C(=O)O)cc1
(b) Cc1oc(-c2ccccc2)nc1CCOc1ccc(CC(Nc2ccccc2C(=O)c2cccc(N)c2)C(=O)O)cc1 (stereo not drawn)
(c) Cc1oc(-c2ccccc2)nc1CCOc1ccc(CC(Nc2ccccc2C(=O)c2cccc(CN(C)C)c2)C(=O)O)cc1 (stereo not drawn)
### Prompt Task for the reader: rank each entry by its solubility, from the minimum upward. Would you mind listing the labels in the order asked for?
### Response c, a, b
(c: 9 µg/mL, a: 52 µg/mL, b: 525 µg/mL)

* * *

target: Peroxisome proliferator-activated receptor gamma (Homo sapiens, UniProt P37231); test: in vitro agonist activity against peroxisome proliferator activated receptor-gamma (PPAR-gamma), using alkaline phosphatase activity transactivator assay; format: functional
Sequence (P37231 whole entry): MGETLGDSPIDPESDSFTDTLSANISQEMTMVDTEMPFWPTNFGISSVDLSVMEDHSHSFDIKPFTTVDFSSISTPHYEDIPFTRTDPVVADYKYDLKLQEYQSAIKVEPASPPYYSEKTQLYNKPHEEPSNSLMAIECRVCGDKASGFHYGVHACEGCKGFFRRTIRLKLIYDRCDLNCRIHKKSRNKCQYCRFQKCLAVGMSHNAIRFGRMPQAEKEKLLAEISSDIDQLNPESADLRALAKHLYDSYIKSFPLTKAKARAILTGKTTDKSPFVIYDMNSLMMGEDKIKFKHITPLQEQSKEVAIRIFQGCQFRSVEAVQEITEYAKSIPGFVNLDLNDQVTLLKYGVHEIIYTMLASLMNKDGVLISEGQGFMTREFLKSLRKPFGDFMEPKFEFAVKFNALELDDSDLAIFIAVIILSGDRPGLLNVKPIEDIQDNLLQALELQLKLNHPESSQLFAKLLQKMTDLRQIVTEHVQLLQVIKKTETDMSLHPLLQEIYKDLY
pEC50: −log10 of the molar value.
readout name: pEC50

### Prompt Write down the reported pEC50 (system: Peroxisome proliferator-activated receptor gamma (Homo sapiens, UniProt P37231)) of CN(CCOc1ccc(CC(Nc2ccc(Cl)cc2C(=O)c2ccccc2)C(=O)O)cc1)c1nc2ccccc2o1 (stereo unspecified)
### Response 7.05

### Prompt Write down the reported pEC50 (system: Peroxisome proliferator-activated receptor gamma (Homo sapiens, UniProt P37231)) of Cc1oc(-c2ccccc2)nc1CCOc1ccc(CC(Nc2ccccc2C(=O)c2ccc(CO)cc2)C(=O)O)cc1 (stereo unspecified)
### Response 7.76

### Prompt Write down the reported pEC50 (system: Peroxisome proliferator-activated receptor gamma (Homo sapiens, UniProt P37231)) of CN(CCOc1ccc(CC(Nc2ccccc2C(=O)c2cccc(C(F)(F)F)c2)C(=O)O)cc1)c1nc2ccccc2o1 (stereo unspecified)
### Response 7.93

### Prompt Write down the reported pEC50 (system: Peroxisome proliferator-activated receptor gamma (Homo sapiens, UniProt P37231)) of Cc1oc(-c2ccccc2)nc1CCOc1ccc(CC(Nc2ccccc2C(=O)O)C(=O)O)cc1 (stereo unspecified)
### Response 5.31

### Prompt Write down the reported pEC50 (system: Peroxisome proliferator-activated receptor gamma (Homo sapiens, UniProt P37231)) of CN(CCOc1ccc(CC(Nc2ccccc2C(=O)C2CCCCCC2)C(=O)O)cc1)c1nc2ccccc2o1 (stereo unspecified)
### Response 8.11

### Prompt Write down the reported pEC50 (system: Peroxisome proliferator-activated receptor gamma (Homo sapiens, UniProt P37231)) of Cc1oc(-c2ccccc2)nc1CCOc1ccc(CC(Nc2ccccc2C(=O)c2cccc(N)c2)C(=O)O)cc1 (stereo unspecified)
### Response 8.05

(1) Cc1oc(-c2ccccc2)nc1CCOc1ccc(C[C@H](Nc2ccccc2C(=O)C2CCCCC2)C(=O)O)cc1
(2) Cc1oc(-c2ccccc2)nc1CCOc1ccc(CC(Nc2ccccc2C(=O)c2cccnc2)C(=O)O)cc1 (stereo unspecified)
### Prompt From the recorded data, which exceeds the other in pEC50: 1 or 2 ? # answer = label of selected item
### Response 1

(a) Cc1ccc(NC(Cc2ccc(OCCN(C)c3nc4ccccc4o3)cc2)C(=O)O)c(C(=O)c2ccccc2)c1 (stereo unspecified)
(b) CN(CCOc1ccc(CC(Nc2ccccc2C(=O)c2ccc(C(F)(F)F)cc2)C(=O)O)cc1)c1nc2ccccc2o1 (stereo unspecified)
### Prompt From the recorded data, which exceeds the other in pEC50: a or b ? # answer = label of selected item
### Response b

Attribution: ChEMBL document CHEMBL1131297
